Documented GI50 across a set of molecules
Tested on: NCI-H522
assay-remarks: NCI tumour cell line growth inhibition, 48 h
The source made the active and inactive calls. Cut-off read from the data, not from the text of the source: active = GI50 up to about 1.1 µM and inactive = higher.

>  <substance-smiles>
Cc1ccc(Nc2nc3c(s2)C(=O)c2ccccc2C3=O)c(C)c1

>  <system-tested>
NCI-H522

>  <GI50>
3.14 µM (inactive)

$$$$
>  <substance-smiles>
CCCc1cc(OC(=O)c2c(O)cc(OC)cc2CCC)cc(O)c1C(=O)O

>  <system-tested>
NCI-H522

>  <GI50>
16 µM (inactive)

$$$$
>  <substance-smiles>
Cc1ccc(-n2nncc2[Si](C)(C)C)s1

>  <system-tested>
NCI-H522

>  <GI50>
> 100 µM (inactive)

$$$$

Using the record for COc1ccc(OC)c2c(=O)c3ccccc3[nH]c12 , report its GI50.
82.8 µM (inactive)

Moving on to the next molecule: NCCCN1CCN(CCCNc2ccc3nnn4c5ccccc5c(=O)c2c34)CC1
11.3 µM (inactive)

----------
Tested on: SK-MEL-28
assay-remarks: NCI tumour cell line growth inhibition, 48 h
Activity calls are given as the source filed them. Rule as the data show it: active = GI50 up to about 1.1 µM and inactive = higher.
Can you answer with just one of these options? active, inactive

Example entries and their recorded answers appear below.
>  <molecule>
O=C(O)C(Cc1ccccc1)N1C(=O)c2ccccc2C1=O (stereo not given)

>  <category>
inactive

$$$$
>  <molecule>
CN(C)Cc1cc(C(=O)/C=C/c2ccc(Cl)cc2)cc(CN(C)C)c1O

>  <category>
inactive

$$$$
>  <molecule>
Cc1nc2ccccc2c(=O)n1NC(=O)c1ccccc1O

>  <category>
inactive

$$$$
>  <molecule>
N#CC(/C(CCC(=O)Nc1ccc(Cl)cc1)=N/NC(=O)c1cc2ccccc2cc1O)c1ccccc1 (stereo not given)

>  <category>
inactive

$$$$
>  <molecule>
O=[N+]([O-])C(=C(Nc1cccc2cccnc12)Nc1cccc2cccnc12)C(Cl)=C(Cl)Cl

>  <category>
inactive

$$$$

Each molecule tested received a call. Report the one for COc1ccc(/C=C2\CCC(Cc3ccccc3)(CN(C)C)C2=O)cc1 (stereo not given) .
inactive

Moving on to the next molecule: [N-]=[N+]=Nc1cc(=O)[nH]nc1-c1ccccc1
inactive

Moving on to the next molecule: COc1ccc2c(ccc3c(C(=O)NCCN(C)CCNC(=O)c4cn(C)c5c4ccc4cc(OC)ccc45)cn(C)c32)c1
inactive

Moving on to the next molecule: Cc1nc(Nc2nc3ccccc3[nH]2)nc(Cl)c1CCCl
inactive

Moving on to the next molecule: O=[N+]([O-])c1ccc2c(c1)Cc1cc(/N=C/c3ccc4c(c3)OCO4)ccc1-2
inactive

----------
Test system: HOP-62
assay-remarks: NCI tumour cell line growth inhibition, 48 h
Counter-ions that a name gives are not always drawn. Calls of active or inactive are those of the source. Cut-off read from the data, not from the text of the source: active = GI50 up to about 1.1 µM and inactive = higher.
quantity-name: GI50

>  <compound>
CC(NC(C)(C)C)C(=O)c1cccc(Cl)c1 (centres undefined) [BUPROPION HYDROCHLORIDE]

>  <test-value>
> 100 µM (inactive)

$$$$
>  <compound>
COC(=O)C(CCS(=O)(=O)CC(=O)C(=O)Nc1cccc(C(C)=O)c1)C(=O)OC

>  <test-value>
> 100 µM (inactive)

$$$$
>  <compound>
O=C(Oc1ccc2c(c1)CN(Cc1ccccc1)CO2)c1ccccc1

>  <test-value>
18.4 µM (inactive)

$$$$
>  <compound>
COc1ccc(/C(Cl)=C(\C=O)c2ccc(F)cc2)cc1OC

>  <test-value>
15.2 µM (inactive)

$$$$
>  <compound>
Nc1cc(-c2ccc(Cl)cc2)nn1-c1nc2ccccc2nc1-c1ccccc1

>  <test-value>
49 µM (inactive)

$$$$

Using the record for CCOC(=O)c1[nH]cc(C)c1-c1cccn1-c1ccc(Cl)cc1[N+](=O)[O-] , report its GI50.
18.6 µM (inactive)

Moving on to the next compound: CC12CC1C(c1cccc([N+](=O)[O-])c1)(c1cccc([N+](=O)[O-])c1)N=N2 (centres undefined)
> 100 µM (inactive)

Moving on to the next compound: CCOC(=O)C1(C/C=C(/C)Cl)CCCC1=O (centres undefined)
> 100 µM (inactive)

Moving on to the next compound: O=C(CCc1nnc2s/c(=C\c3ccc(Cl)c(Cl)c3)c(=O)n12)Nc1ccc(Cl)c(Cl)c1
> 100 µM (inactive)

Moving on to the next compound: CC(=O)O/N=C1\C=Cc2c(no[n+]2[O-])C1=O
38.3 µM (inactive)

Moving on to the next compound: COc1ccccc1NC(=O)CC(=O)n1nc(C)c(/N=N/c2ccccc2Cl)c1C
58.3 µM (inactive)
